experiment: AUClast in golden Syrian hamster at 50 mg/kg, po measured up to 24 hrs by LC-MS/MS analysis; format: ADME, organism-based, Mesocricetus auratus; design: time < 24 hr, dose 50 mg/kg, route oral; settings: in vivo
reported.metric: AUC(0-t) at 24 h (ng·h/mL)
Please give a number only; it is taken to be in ng·h/mL.

Query :: What measured AUC(0-t) at 24 h goes with COc1cc(C(c2nnnn2C2CCCCC2)N2CCc3c([nH]c4ccccc34)C2)cc(OC)c1OC (stereo unspecified) ?
Result :: 844

====

assay: Tmax in golden Syrian hamster at 50 mg/kg, po measured up to 24 hrs by LC-MS/MS analysis; assay type: ADME, organism-based, Mesocricetus auratus; settings: in vivo
reported.metric: Tmax

Query :: What measured Tmax goes with COc1cc(C(c2nnnn2C2CCCCC2)N2CCc3c([nH]c4ccccc34)C2)cc(OC)c1OC (stereo unspecified) ?
Result :: 1.6 to 8 h

====

tested on: Leishmania donovani; assay: Antileishmanial activity against Leishmania donovani MHOM/IN/80/Dd8 promastigotes harboring luciferase reporter gene after 72 hrs by Steady-Glo luminescence assay; assay type: functional, organism-based; settings: MHOM/IN/80/Dd8, 72 h
reported.metric: IC50 (µM)
Please give a number only; it is taken to be in µM.

# compound, reported.value
data = [
    ("O=[N+]([O-])c1ccc(C(c2nnnn2C2CCCCC2)N2CCc3c([nH]c4ccccc34)C2)cc1 (stereo unspecified)", 31),
    ("CC(C)(C)n1nnnc1C(c1ccccc1)N1CCc2c([nH]c3ccccc23)C1 (stereo unspecified)", 4.07),
    ("COc1cc(C(c2nnnn2C2CCCCC2)N2CCc3c([nH]c4ccccc34)C2)cc(OC)c1OC (stereo unspecified)", 2.81),
]

Query :: Recall the recorded IC50 for CC(C)(C)n1nnnc1C(c1ccc(Cl)cc1)N1CCc2c([nH]c3ccccc23)C1 (stereo unspecified) with Leishmania donovani and state it.
Result :: 3.45

Query :: Recall the recorded IC50 for CC(C)c1ccc(C(c2nnnn2C(C)(C)C)N2CCc3c([nH]c4ccccc34)C2)cc1 (stereo unspecified) with Leishmania donovani and state it.
Result :: 3.56

Query :: Recall the recorded IC50 for COc1ccc(C(c2nnnn2C(C)(C)C)N2CCc3c([nH]c4ccccc34)C2)cc1 (stereo unspecified) with Leishmania donovani and state it.
Result :: 1.14

Query :: Recall the recorded IC50 for COc1ccc(C(c2nnnn2C2CCCCC2)N2CCc3c([nH]c4ccccc34)C2)cc1OC (stereo unspecified) with Leishmania donovani and state it.
Result :: 1.2

====

Each item that follows carries a reported selectivity ratio.
experiment: Selectivity index, ratio of CC50 for mouse J774A.1 cells to IC50 for Leishmania donovani MHOM/IN/80/Dd8 amastigote forms infected in mouse J774A.1 cells; format: toxicity, cell-based; conditions: read-out: Ratio CC50/IC50
Please state the value as a number alone, without comment.

# molecule, selectivity ratio
rows = [
    ("COc1cc(C(c2nnnn2C2CCCCC2)N2CCc3c([nH]c4ccccc34)C2)cc(OC)c1OC (centres undefined)", 23),
    ("CC(C)c1ccc(C(c2nnnn2C(C)(C)C)N2CCc3c([nH]c4ccccc34)C2)cc1 (centres undefined)", 7),
    ("CC(C)(C)n1nnnc1C(c1ccc(F)cc1)N1CCc2c([nH]c3ccccc23)C1 (centres undefined)", 3),
]

Now examine the next entry.
Query :: What measured selectivity ratio goes with CC(C)(C)n1nnnc1C(c1ccccc1)N1CCc2c([nH]c3ccccc23)C1 (centres undefined) ?
Result :: 27
